Assay: NCI Yeast Anticancer Drug Screen. Data for the cln2 rad14 strain (AID 165);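 also: 0% = growth equal to vehicle treated cultures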
Details: S. cerevisiae cln2 rad14 strain, at 50.0 µM, stronger effect = higher value
The panel holds about 79,000 compounds, 15% with a hit somewhere; the sample as a whole holds those more often.
ATTRIBUTE_MEASURED: growth inhibition (%)
# number only, unit % dropped from output

Examples with answers:
MOLECULE: C/C(=N\NC(=S)N1CC2CCC(CC2)C1)c1nccs1
UNIT_OF_MEASURE: %
growth inhibition: 87.2

MOLECULE: COC(=O)C1(C(=O)OC)Cc2ccc(C)cc2C2=C1C(=O)c1ccccc1C2=O
UNIT_OF_MEASURE: %
growth inhibition: 7.55

MOLECULE: OCC(O)C(O)C(O)C1C[O][Sb][O]1 (centres undefined)
UNIT_OF_MEASURE: %
growth inhibition: -11.2

Can you share its growth inhibition? I mean this molecule: NC(N)=Nc1c(N)ncnc1N
-2.65

Data request, read-out growth inhibition, for CCCCCCCCCCCCCCCCOC[C@@H](COC(c1ccccc1)(c1ccccc1)c1ccccc1)O[P+](=S)OC (some centres undefined)
77.6

Given the entry CC[As](CC)SCC1OC(OC(C)=O)C(OC(C)=O)C(OC(C)=O)C1OC(C)=O (centres undefined) , report its measured growth inhibition.
99.5

====

Assay: NCI Yeast Anticancer Drug Screen. Data for the cln2 rad14 strain (AID 165);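 also: 0% = growth equal to vehicle treated cultures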
Settings: S. cerevisiae cln2 rad14 strain, at 50.0 µM
This is part of a sample that, as a whole, favours compounds with a hit. Of some 79,000 tested, about 15% had one in any assay. The source made the active and inactive calls. Rule as the data show it: active = growth inhibition above about 70%; inactive = the rest.
I would appreciate it if you answered using one of these outcomes: 1 (yes) for active, 0 (no) for inactive

Reference set, count: 2
MOLECULE: CCCN(CCC)c1c([N+](=O)[O-])cc(C(=O)N(CC)CC)cc1[N+](=O)[O-]
DISCRETE_LABEL: 0 (no)
--
MOLECULE: COc1cc(C2c3cc4c(cc3C(O)[C@H]3COC(=O)C23)OCO4)cc(OC)c1O (some centres not stated)
DISCRETE_LABEL: 0 (no)

Dear all, I need the recorded test outcome for C#CC1(O)CCCCCC1 , thank you.
0 (no)

Would you mind telling me which call this test gave O=P(Oc1ccccc1)(Oc1ccccc1)N(CCCl)CCCl ?
0 (no)

What call does the record list for OP(=S)(OCc1ccccc1)OCc1ccccc1 ?
0 (no)

====

Assay: NCI Yeast Anticancer Drug Screen. Data for the mlh1 rad18 strain (AID 175)
Details: S. cerevisiae mlh1 rad18 strain growth inhibition; at 50.0 µM; stronger effect = higher value
About 79,000 compounds went through this panel and 15% of them were active in at least one assay; those are over-represented in the sample as a whole.
ATTRIBUTE_MEASURED: growth inhibition (%)
Number only, in %; omit the unit.

COMPOUND: CCC(CC)CNC(=O)C(C)Br (stereo not drawn)
UNIT_OF_MEASURE: %
growth inhibition: -3.65
--
COMPOUND: Sc1ccccc1.[Ag]
UNIT_OF_MEASURE: %
growth inhibition: 98.3

Now, please, on to the next compound.
What value of measured growth inhibition is listed for NC1=NC(=O)C(c2ccccc2)(c2ccccc2)O1 ?
-4.15

====

growth inhibition listing for selected compounds.
Assay: NCI Yeast Anticancer Drug Screen. Data for the cln2 rad14 strain (AID 165);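 also: 0% = growth equal to vehicle treated cultures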
Conditions: S. cerevisiae cln2 rad14 strain, at 5.0 µM (retest, dose inferred, filed as 0.5), stronger effect = higher value
This is part of a sample that, as a whole, favours compounds with a hit. Of some 79,000 tested, about 15% had one in any assay.
Expressed in %, but write only the number.

Observe how each entry below is paired with its result.
COMPOUND: CC(C)=CCC/C(C)=C/CC/C(C)=C/Cc1c(O)c2ccccc2oc1=O
ATTRIBUTE_MEASURED: growth inhibition
READOUT_VALUE: 29
--
COMPOUND: O=[As]c1ccc(O)c(O)c1 (stereo not drawn)
ATTRIBUTE_MEASURED: growth inhibition
READOUT_VALUE: -9

Now consider the entry below.
Field request: growth inhibition | item: COC(=O)C1=C(C(=O)OC)C2(C)OC1c1ccccc12 (stereo not drawn)
0

The origin of these recorded values is PubChem BioAssay (NCI).
